assay.explanation: chemical genetic growth profiling, strain panel (AID 1159580);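 note: tested at 20 µM; growth read once vehicle control cultures reached saturation at 30 °C; lower values mean less growth of the strain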
test.parameters: S. cerevisiae deletion strains, growth OD, locus YDR069C, strain doa4
Hit rate of the full screen: of about 5,500 compounds, about 2,000 (36%) were called active. About 18% were inconclusive and are not listed. Cut-off read from the data, not from the text of the source: active = normalized growth mostly below about 0.91 (no sharp cut-off); inconclusive = no clear call, values can overlap the other calls; inactive = mostly above about 0.92. This is one part of the list.
Use one of these outcomes when replying: Y (active), N (inactive)

Any idea what this test logged for C/C=C(/C)C(=O)O[C@@H]1[C@H](OC(C)=O)[C@@]2(CO)C(CC1(C)C)C1=CCC3[C@@]4(C)CC[C@H](O[C@@H]5O[C@H](C(=O)O)[C@@H](O[C@@H]6O[C@H](CO)[C@@H](O)[C@H](O)[C@H]6O)[C@H](O)[C@H]5O[C@@H]5O[C@H](CO)[C@@H](O)[C@H](O)[C@H]5O)[C@](C)(CO)C4CC[C@@]3(C)[C@]1(C)C[C@H]2O (stereo partly specified) ?
N

I would be grateful if you could indicate the recorded call for NC(N)=N/N=C/c1c(Cl)cccc1Cl .
N

Hi team, can someone confirm the assay call for C[C@H]1[C@H](C)CC[C@]2(CO)CC[C@]3(C)C(=CCC4[C@@]5(C)CC[C@H](O)C(C)(C)C5CC[C@]43C)[C@H]12 (stereo partly specified) ?
N

Hi team, can someone confirm the assay call for CC1(C)CCC2(C(=O)O)CCC3(C)C(=CCC4C5(C)CCC(O)C(C)(C)C5C(O)CC43C)C2C1 (stereo unspecified) ?
Y

Continuing:
Look up the recorded call for C[C@@H]1CC[C@]2(C(=O)O)CC[C@]3(C)C(=CCC4[C@@]5(C)CC[C@H](O)C(C)(C)C5CC[C@]43C)C2[C@H]1C (stereo partly specified) in this test.
N

So what was the verdict on CO[C@@]12[C@@H]3NC3CN1C1=C(C(=O)C(N)=C(C)C1=O)[C@@H]2COC(N)=O (stereo partly specified) in this test?
N
